- Tested on: SMN2 mRNA
- METHOD: Splicing RT-qPCR gene panel, SMN2 canonical junction (CJ) mRNA
- Type: cell-based
- CONDITION PARAMETERS: Homo sapiens; Table 8; larger gene panel, decrease in CJ mRNA levels
Where a name gives a salt, the structure may show the parent alone.
MEASUREMENT TYPE: IC50

Input line: Name the recorded IC50 of Cn1cc2cc(-c3cc4cn([C@@H]5CCNC5)nc4s3)cc(F)c2n1 [Compound 160, hydrochloride] , assay system SMN2 mRNA.
Output line: 1000 to 10000 nM

Input line: Name the recorded IC50 of Cc1cc(-c2cc3cn([C@@H]4CCNC[C@@H]4F)nc3s2)cc2cn(C)nc12 (single isomer, unassigned) , assay system SMN2 mRNA.
Output line: < 100 nM

Input line: Name the recorded IC50 of `Cn1cc2cc(-n3cc4cc(C5CCNCC5)sc4n3)cc(F)c2n1` , assay system SMN2 mRNA.
Output line: < 100 nM

Input line: Name the recorded IC50 of Cn1cc2cc(-c3nc4sc(N5CCC6(CCN6)C5)cc4s3)cc(F)c2n1 (centres unmarked) , assay system SMN2 mRNA.
Output line: < 100 nM

Input line: Name the recorded IC50 of CC1CN(c2cc3sc(-c4cc(F)c5nn(C)cc5c4)nc3s2)CCN1 (centres unmarked) , assay system SMN2 mRNA.
Output line: < 100 nM

Input line: Name the recorded IC50 of `CN(c1cc2sc(-c3ccc(-c4cn[nH]c4)cc3O)nc2s1)[C@@H]1C[C@H]2CC[C@@H](C1)N2` , assay system SMN2 mRNA.
Output line: > 10000 nM

Input line: Name the recorded IC50 of `Cn1cc2cc(-c3nc4sc(C5CCNCC5)cc4s3)cc(F)c2n1` , assay system SMN2 mRNA.
Output line: < 100 nM

Input line: Name the recorded IC50 of `Cn1cc2cc(-c3cc4cn(C5CCNCC5)nc4s3)c(O)c(F)c2n1` , assay system SMN2 mRNA.
Output line: < 100 nM

---

- System: MYB mRNA
- METHOD: Splicing RT-qPCR assay, MYB canonical (CJ) and alternative (AJ) junction mRNA
- Format: cell-based
- CONDITION PARAMETERS: Homo sapiens; Table 7; IC50 = 50% response in CJ mRNA decrease; RT-qPCR, A673 or K562 cells, 24 hours treatment; read-out: MYB CJ
pIC50: −log10 of the molar value.
MEASUREMENT TYPE: pIC50

Input line: Look up and report measured pIC50 for this entry: Cc1cn2cc(-n3cc4sc(C5CCNCC5)cc4n3)cc(Cl)c2n1 [Compound 172]
Output line: 5.00 to 6.00

Input line: Look up and report measured pIC50 for this entry: CCN1CCC(n2cc3cc(-c4cc(F)c5nn(C)cc5c4)sc3n2)CC1 [Compound 149]
Output line: 6.00 to 7.00

Input line: Look up and report measured pIC50 for this entry: Cn1cc2cc(N3Cc4sc(C5CCNCC5)cc4C3=O)ccc2n1 [Compound 1120]
Output line: 5.00 to 6.00

Input line: Look up and report measured pIC50 for this entry: CN1CCC(c2cc3sc(-c4cc(F)c5nn(C)cc5c4)nc3s2)CC1 [Compound 151]
Output line: 6.00 to 7.00

Input line: Look up and report measured pIC50 for this entry: Cn1cc2cc(N3Cc4sc(C5CCNCC5)cc4C3=O)ncc2n1 [Compound 1125]
Output line: 5.00 to 6.00

Input line: Look up and report measured pIC50 for this entry: Cn1cc2cc(-c3cc4cn(C5CNC5)nc4s3)cc(F)c2n1 [Compound 184]
Output line: 5.00 to 6.00

Input line: Look up and report measured pIC50 for this entry: Cn1cc2cc(-c3cc4cn(C5CCNCC5)nc4s3)cc(F)c2n1 [Compound 122]
Output line: > 7.00

Input line: Look up and report measured pIC50 for this entry: Cn1cc2cc(-c3nc4sc(N5CCN6CCCC6C5)cc4s3)cc(F)c2n1 (stereo not drawn) [Compound 144]
Output line: 5.00 to 6.00

Input line: Look up and report measured pIC50 for this entry: Cn1cc2c(F)cc(-c3nc4sc(C5CCNCC5)cc4s3)cc2n1 [Compound 131]
Output line: 5.00 to 6.00

Input line: Look up and report measured pIC50 for this entry: Cc1cn2cc(-n3cc4cc(C5CCNCC5)sc4n3)nc2c(C)n1 [Compound 227]
Output line: 5.00 to 6.00

Input line: Look up and report measured pIC50 for this entry: Cc1cc(-n2cc3nc(C4CCNCC4)sc3n2)cc2cn(C)nc12 [Compound 1106]
Output line: < 5.00

Input line: Look up and report measured pIC50 for this entry: C[C@@H]1C[C@H](c2cc3sc(-c4cc(F)c5nn(C)cc5c4)nc3s2)CCN1 (single isomer, unassigned) [Compound 192]
Output line: > 7.00

Input line: Look up and report measured pIC50 for this entry: Cn1cc2cc(-n3cc4sc(C5CCNCC5)cc4n3)ccc2n1 [Compound 100]
Output line: < 5.00

Input line: Look up and report measured pIC50 for this entry: Cn1cc2cc(-c3cc4cn(C5CCNCC5)nc4s3)ccc2n1 [Compound 207]
Output line: 5.00 to 6.00

Input line: Look up and report measured pIC50 for this entry: Cc1nc2c(F)cc(-c3nc4sc(C5CCNCC5)cc4s3)cc2s1 [Compound 126]
Output line: 5.00 to 6.00

Input line: Look up and report measured pIC50 for this entry: Cn1cc2cc(-c3cc4cn([C@@H]5CCNC[C@H]5O)nc4s3)cc(F)c2n1 [Compound 273]
Output line: < 5.00

Input line: Look up and report measured pIC50 for this entry: Cc1cn2nc(-n3cc4cc(C5CCNCC5)sc4n3)nc2c(C)n1 [Compound 163]
Output line: 5.00 to 6.00

Input line: Look up and report measured pIC50 for this entry: COc1c(-c2cc3cn(C4CCNCC4)nc3s2)nn2cc(C)nc(C)c12 [Compound 219]
Output line: < 5.00

Input line: Look up and report measured pIC50 for this entry: COc1c(-c2nc3sc(C4CCNCC4)cc3s2)cc2cn(C)nc2c1F [Compound 242]
Output line: > 7.00

Input line: Look up and report measured pIC50 for this entry: Cc1cc(N2Cc3sc(C4CCNCC4)cc3C2=O)cc2cn(C)nc12 [Compound 1122]
Output line: 6.00 to 7.00

Input line: Look up and report measured pIC50 for this entry: Cn1cc2cc(-c3cc4cn([C@H]5CCNC[C@H]5F)nc4s3)cc(F)c2n1 [Compound 182]
Output line: 6.00 to 7.00

Input line: Look up and report measured pIC50 for this entry: Cc1nc2c(F)cc(-c3nc4sc(C5CCNCC5)cc4s3)cc2o1 [Compound 132]
Output line: 6.00 to 7.00

Input line: Look up and report measured pIC50 for this entry: Cc1nc2c(F)cc(-n3cc4sc(C5CCNCC5)cc4n3)cc2o1 [Compound 167]
Output line: 5.00 to 6.00

Input line: Look up and report measured pIC50 for this entry: Cn1cc2cc(-n3cc4nc(C5CCNCC5)sc4n3)cc(F)c2n1 [Compound 1109]
Output line: < 5.00

Input line: Look up and report measured pIC50 for this entry: Cc1cn2nc(-c3cc4sc(C5CCNCC5)nc4s3)cc(C)c2n1 [Compound 125]
Output line: 5.00 to 6.00

Input line: Look up and report measured pIC50 for this entry: Cn1cc2cc(N3Cc4sc(C5CCNCC5)cc4C3=O)cc(F)c2n1 [Compound 1119]
Output line: 6.00 to 7.00

Input line: Look up and report measured pIC50 for this entry: Cn1cc2c(O)c(-c3nc4sc(C5CCNCC5)cc4s3)ccc2n1 [Compound 231]
Output line: < 5.00

Input line: Look up and report measured pIC50 for this entry: Cn1cc2cc(-c3nc4sc(N5CCC6(CCN6)C5)cc4s3)cc(F)c2n1 (stereo not drawn) [Compound 233]
Output line: 5.00 to 6.00

Input line: Look up and report measured pIC50 for this entry: CN1CCN(c2cc3sc(-c4cc(F)c5nn(C)cc5c4)nc3s2)CC1 [Compound 141]
Output line: 6.00 to 7.00

Input line: Look up and report measured pIC50 for this entry: Cc1cn2nc(-c3nc4sc(C5CCNCC5)cc4s3)cc2c(C)n1 [Compound 133]
Output line: 6.00 to 7.00

Input line: Look up and report measured pIC50 for this entry: Cc1cn2cc(-c3nc4sc(C5CCNCC5)cc4s3)nc(C)c2n1 [Compound 270]
Output line: 6.00 to 7.00

Input line: Look up and report measured pIC50 for this entry: Cc1cn2nc(-c3nc4sc(C5=CCNCC5)cc4s3)cc(C)c2n1 [Compound 198]
Output line: 6.00 to 7.00

Input line: Look up and report measured pIC50 for this entry: Cc1cn2cc(-n3cc4sc(C5CCNCC5)cc4n3)ncc2n1 [Compound 169]
Output line: 5.00 to 6.00

Input line: Look up and report measured pIC50 for this entry: Cn1cc2cc(-c3cc4sc(C5CCNCC5)nc4s3)cc(F)c2n1 [Compound 124]
Output line: 6.00 to 7.00

Input line: Look up and report measured pIC50 for this entry: Cc1cn2nc(-c3cc4cn(C5CCNCC5)nc4s3)cc(C)c2n1 [Compound 162]
Output line: 6.00 to 7.00

Input line: Look up and report measured pIC50 for this entry: Cc1cn2cc(-c3nc4cn(C5CCNCC5)nc4s3)nc(C)c2n1 [Compound 1105]
Output line: < 5.00
